Just for reference, the supplement of paper PMC6555819 is where these values come from.

Test system: LXRa homodimer (NR concentration 270 nM)
Experiment: PBM binding z-score (relative to random genomic background probes); higher = stronger binding; sequences stand for … in GC…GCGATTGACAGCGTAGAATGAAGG
Listed here: items and their measured PBM binding z-score.
measure_name: PBM binding z-score

CCAGACAGGTGAAAGGTAACACAGTCTGGTACGC :: -0.29
ACTAGCAGGCCAAGTTTGGGTCACACAAACAAAG :: -0.252
CGGACGAGGGCATGAGTTGATAGCAAATGCCGAT :: -0.262
GCTGCGAGGTCAGGTTGGTCAGCTAACGGGTACG :: 0.305

----------
Test system: LXRa:RXRa (NR concentration 270 nM, RXRa partner concentration 90 nM)
Assay: PBM binding z-score (relative to random genomic background probes); higher = stronger binding; sequences stand for … in GC…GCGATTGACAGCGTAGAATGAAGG
Listed here: items and their measured PBM binding z-score.
measure_name: PBM binding z-score

TGTCAAAGTTCAAAGGTAACGGAAGTATCCACAC :: 6.74
CCCAGTAGGTTATGGGGCATTCAGGCAACGGTGA :: 0.622
TCTTGTAGATCCATAGAGGTTAAGAAAGTGCGCT :: 3.32
CCTTACGGGTCAACGTTATAGCACGGGTGGTACG :: 3.47
ACCGAAAGGTCGAGGTGAGTATAGAGAAAGGGAA :: 3.23
AGAACGAGGTCAATGAGTTGATAGCACGGGTGGC :: 5.21
CTCGAAAGGTCGGTTCAGGTGAGTATACGGATAA :: 1.92
ATACCAAGGTGATCGCGAGGTCGTTGATACTAAC :: 0.914
TCGAGTAGGTTACCTATGGGGCATTCAGCTTTCT :: 1.74
CCTACTCGGCCAAGGTCATTGATCAGTCAAAGCA :: 3.69
CAAACTAGATCACGAAAGGTCAAAGTCGAATGAC :: 5.95
CAAACTAGGACACCGGAAGGTCAAAGTCCGCATG :: 3.23
CCTAGCAGGCCAACCTGGGTCACTCAAGGCTTGA :: 1.36
CTGCCAAGGTGAACAAGGTCGTTGATTACTATTC :: 0.86
TCGAGTAGGTTGGTCGGGGCATTCAGCCAACATA :: -0.387

----------
Test system: PPARg:RXRa (NR concentration 180 nM, RXRa partner concentration 90 nM)
Experiment: PBM binding z-score (relative to random genomic background probes); higher = stronger binding; sequences stand for … in GC…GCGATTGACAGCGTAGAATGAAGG
measure_name: PBM binding z-score

ATCTCTAGATAAGACTCAGTTCAGTGAAGAACGC :: 0.0934
TTAGCAAGGTGAGCTGAGGTCGTTGATCCAACTC :: -0.0318
ACCGAAAGGTCGAAGGTGAGTATACCCACCCGAA :: 4.39
ATCTCTAGGTAAGACTCAGTTCAGTGAGGAACGC :: 0.166
ATACCAAGGTGATCGTGAGGTCGTCGATACTAAC :: 0.672
CCTACTGGGCCATCAGGGCATTGATATCAACGTT :: 1.16
CCAGATAGGTGAGAAGGTAACTCAGCCTCGATTA :: 1.1
CGCGAAAGGTCGGTTGAGGTGAGTATACGGATAA :: 0.872
GCATATAGGTAATACAACGTGAAAGTCCGATTGT :: 1.02
TCTGCCAGGTCAGTTGGTCAGCTAACGAGCTGCC :: -0.0729
CAGCCTAGGTCATGGCCAGTATAGGAGGAACGTT :: 2.34
ACTTACGCGTCAACGAGGTTATAGCACGCGTATA :: 0.862
ATCTCTAGGTAACCAAGTTGAGTGAATGCCGAAC :: 0.337
ATGCCAAGGTGATCGTGAGGTCGTTGATACTAAC :: 0.467
CCTCGGAGGACAACAAGAGGTCAGAGCTGCCAGA :: 1.01
TCTAGCAGGCCAGAGGGGCACTCAAGAGGTACGG :: 0.662
CAAACTAGGTTACCGGAAGGTCAAAGTCCGCATG :: 6.22
CGTCCAAGGTTAGAGAGGTCAGTGAATGCCGAGT :: 0.589
ATCGAAAGGTCGAGGTGAGTCTAGAGAAAGGGAA :: 3.46
AGAATGAGGGTAAGATCAGGGAAACAGAATACAT :: 0.981

----------
System: RARa homodimer (NR concentration 270 nM)
Experiment: PBM binding z-score (relative to random genomic background probes); higher = stronger binding; sequences stand for … in GC…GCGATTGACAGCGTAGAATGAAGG
measure_name: PBM binding z-score

TCATATAGGTCAAGGTGAAAGTCGAACGATATGA :: 0.732
CTCGAAAGGTCGTTTGAGGTGAGTATACGGATAA :: -0.088
CCAACTAGGTCACGAAAGGTCAAAGTCGAATGAC :: 3.62
ACTATTAGTTGACTTCGGGCAACCGATACGACGC :: 0.245
ATACCAAGGTGATCGTGAGGTCCTTGATACTAAC :: 0.0164

----------
Test system: PPARg homodimer (NR concentration 180 nM)
Test: PBM binding z-score (relative to random genomic background probes); higher = stronger binding; sequences stand for … in GC…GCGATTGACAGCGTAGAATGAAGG
Each entry gets not satisfied if its PBM binding z-score stays under 0.5, and satisfied if its PBM binding z-score is 0.5 or above.

CCTTACTGGTCACTCCAGGTTATAGCATCGGAGT :: satisfied
ATCGAAAGGTCGAAGGGGAGTATACCCACCCGAA :: satisfied
CAAACTAGGTCACAGATGTCAAAGTCCGTGCGTA :: satisfied
TCTAGCAGGCCAGAGCGTCACTCAAGAGGTACGG :: not satisfied
TTGCCTAGGTCATGGGCCAGTATACCACGCGAAC :: satisfied
TCTATTAGTTGAGTAGGGCAACCGAAACAGCGGA :: not satisfied
CCGACTGGGCCAAGGTCATTGATCAGTCAAAGCA :: satisfied
TTACCAAGGTGAAGGTTGTTGATCCCTCTGTAGA :: satisfied
CGAACTAGGTCATCCAGGATAGTGAATACATTGA :: satisfied
AGAATGAGGTTATTAAGATCAGAGAATTGCGGTC :: satisfied
AGTCACAGTTCAGGACGAGGTAACGTAAAGCACG :: not satisfied
ATCGAAAGGACGTGAGGTGAGTATACAGAAAGGC :: not satisfied
TCTCGGAGGACACGAGGGTCAGAGCTTTCCAGAG :: not satisfied
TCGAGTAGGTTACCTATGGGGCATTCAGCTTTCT :: not satisfied
TCTCGGAGGACACGAAAGGCCAGAGCTCGACATC :: not satisfied
CGCCCAAGGTCATAGGAGGTCAGTGAAGACAGAT :: satisfied
ACTAGTTGGTCAGCTGACGTCACACACAATTCGG :: not satisfied
CTCGAAAGGTCGGGTGAGGTGAGTATACGGATAA :: satisfied
AGTCAAAGTTAACTAGGTAACGTAAGATTCAGCT :: not satisfied
GCTAGTTGGTCAGTAAAAGGTCACACAACGGTCG :: satisfied
GGAACGAGGGCAAAGTTGAGAGCATCTGTCGACG :: satisfied
TAGCCTAGTTCATGGGCCAGTATACCACGCGAAC :: not satisfied
ATCTCTCGGTAAAAGTTCAGTGAATCCCGAGGAT :: satisfied
CCTGCTATGTCAATGGTCAGCTAAAGCAGCTCGC :: not satisfied
TGAATGAGGTTATAAGTTCAGGGAACGTTGCAAA :: satisfied
CCGAGTAGGTTATGGAGCATTCAGGCAACGGTGA :: satisfied
CGAACGAGGGCATGAGTTGATAGCGAATGCCGAT :: not satisfied
CCTACTGGGTCAAGGTCATTGATCAGTCAAAGCA :: satisfied
AGAATGAGGTTATTAAGGTCAGGGAATTGCGGTC :: satisfied

----------
Listed here: items and their measured PBM binding z-score.
System: PPARg:RXRa 90nM:30nM, anti-RXR (NR concentration 90 nM, RXRa partner concentration 30 nM)
Assay: PBM binding z-score (relative to random genomic background probes); higher = stronger binding; sequences stand for … in GC…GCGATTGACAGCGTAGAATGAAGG
measure_name: PBM binding z-score

GGAACGAGGGCATGTTGATAGCAGAGTTTGATGG :: -0.104
TTACCAAGGTGAGCTGAGGTCATTGATCCAACTC :: 1.62
CCGAGCAGGTTATGGGGCATTCAGGCAACGGTGA :: 0.762
ATACCAAGGAGATCGTGAGGTCGTTGATACTAAC :: -0.394
CCTTACGGGTCACTGACATGTTATAGCATTTGGA :: 3.45
